- study-system: human cholecystokinin-1 receptor (CCK-1R) (Homo sapiens)
- Construct: host or cells: 1321-N1 cells
- Sequence (P32238 1-428): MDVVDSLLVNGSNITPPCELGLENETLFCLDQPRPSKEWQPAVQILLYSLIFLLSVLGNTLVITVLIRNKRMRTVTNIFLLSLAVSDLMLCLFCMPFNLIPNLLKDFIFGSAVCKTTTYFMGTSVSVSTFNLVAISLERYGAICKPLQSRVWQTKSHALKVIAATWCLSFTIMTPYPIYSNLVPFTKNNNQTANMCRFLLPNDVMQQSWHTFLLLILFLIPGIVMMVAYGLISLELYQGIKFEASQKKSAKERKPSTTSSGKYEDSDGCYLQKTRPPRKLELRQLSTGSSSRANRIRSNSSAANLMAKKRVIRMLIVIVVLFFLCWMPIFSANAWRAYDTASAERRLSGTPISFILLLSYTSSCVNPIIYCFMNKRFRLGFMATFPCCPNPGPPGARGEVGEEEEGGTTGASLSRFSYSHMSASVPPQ
- assay-info: In vitro potency on CCK-1R, whole cell functional assay (IP1 accumulation, IP-One HTRF)
- Type: cell-based
- particulars: 1321-N1 cells stably expressing CCK-1R; IP1 accumulation; average of min. three replicates; read-out: EC50 (CCK-1R)
Starred links: 1 amine or outer side, 2 acyl side, 3 side chain; linkers in the order of their positions; H or OH if unused. Non-standard residues stand in square brackets, D forms with d. Residues, ends and D or L forms follow the SMILES beside them. *: point of attachment. Phe(4-CH2SO3H) = N[C@@H](Cc1ccc(CS(=O)(=O)O)cc1)C(=O)O; sY = N[C@@H](Cc1ccc(OS(=O)(=O)O)cc1)C(=O)O; C18 diacid = O=C(O)CCCCCCCCCCCCCCCCC(=O)*; γGlu = O=C(O)[C@H](CCC(=O)[*:2])N[*:1]; βAsp = O=C(O)[C@H](CC(=O)[*:2])N[*:1]; NMeF = CN[C@@H](Cc1ccccc1)C(=O)O; dNMeD = CN[C@H](CC(=O)O)C(=O)O; Nle = CCCC[C@H](N)C(=O)O; AEEA = NCCOCCOCC(=O)O
EC50 for assorted compounds
Numeric only. Scale: pM

# count of solved cases: 5
- compound: "CCCC[C@H](NC(=O)[C@H](Cc1ccc(CS(=O)(=O)O)cc1)NC(=O)[C@@H](N)CC(=O)O)C(=O)NCC(=O)N[C@@H](Cc1c[nH]c2ccccc12)C(=O)N[C@@H](CCCC)C(=O)N(C)[C@H](CC(=O)O)C(=O)N(C)[C@@H](Cc1ccccc1)C(N)=O [Example 55] (H-D[Phe(4-CH2SO3H)][Nle]GW[Nle][dNMeD][NMeF]-NH2)"
  result-units: "pM"
  EC50: 250
- compound: "CCCC[C@H](NC(=O)[C@H](Cc1c[nH]c2ccccc12)NC(=O)CNC(=O)[C@H](CCCNC(=N)N)NC(=O)[C@H](Cc1ccc(OS(=O)(=O)O)cc1)NC(=O)[C@@H](N)CC(=O)O)C(=O)N(C)[C@H](CC(=O)O)C(=O)N(C)[C@@H](Cc1ccccc1)C(N)=O [Example 68] (H-D[sY]RGW[Nle][dNMeD][NMeF]-NH2)"
  result-units: "pM"
  EC50: 210
- compound: "CCCC[C@H](NC(=O)[C@H](Cc1c[nH]c2ccccc12)NC(=O)CNC(=O)[C@H](CCCNC(=N)N)NC(=O)[C@H](Cc1ccc(OS(=O)(=O)O)cc1)NC(=O)[C@H](CC(=O)O)NC(=O)COCCOCCNC(=O)COCCOCCNC(=O)CC[C@H](NC(=O)CCCCCCCCCCCCCCCCC(=O)O)C(=O)O)C(=O)N(C)[C@H](CC(=O)O)C(=O)N(C)[C@@H](Cc1ccccc1)C(N)=O [Example 17] ({C18 diacid-γGlu-AEEA-AEEA}-D[sY]RGW[Nle][dNMeD][NMeF]-NH2)"
  result-units: "pM"
  EC50: 210
- compound: "CCCC[C@H](NC(=O)[C@H](Cc1c[nH]c2ccccc12)NC(=O)CNC(=O)[C@H](Cc1ccccc1)NC(=O)[C@H](Cc1ccc(OS(=O)(=O)O)cc1)NC(=O)[C@@H](N)CC(=O)O)C(=O)N(C)[C@H](CC(=O)O)C(=O)N(C)[C@@H](Cc1ccccc1)C(N)=O [Example 78] (H-D[sY]FGW[Nle][dNMeD][NMeF]-NH2)"
  result-units: "pM"
  EC50: 220
- compound: "CC(C)C[C@H](NC(=O)[C@H](Cc1ccc(OS(=O)(=O)O)cc1)NC(=O)[C@H](CCC(=O)O)NC(=O)COCCOCCNC(=O)COCCOCCNC(=O)CC[C@H](NC(=O)CCCCCCCCCCCCCCCCC(=O)O)C(=O)O)C(=O)NCC(=O)N[C@@H](Cc1c[nH]c2ccccc12)C(=O)N[C@@H](CCC(N)=O)C(=O)N(C)[C@H](CC(=O)O)C(=O)N(C)[C@@H](Cc1ccccc1)C(N)=O [Example 42]"
  result-units: "pM"
  EC50: 220

[in] Name the reported EC50 value associated with the compound CCCC[C@H](NC(=O)[C@H](Cc1ccc(CS(=O)(=O)O)cc1)NC(=O)C[C@H](N)C(=O)O)C(=O)NCC(=O)N[C@@H](Cc1c[nH]c2ccccc12)C(=O)N[C@@H](CCCC)C(=O)N(C)[C@H](CC(=O)O)C(=O)N(C)[C@@H](Cc1ccccc1)C(N)=O [Example 75] (βAsp-[Phe(4-CH2SO3H)][Nle]GW[Nle][dNMeD][NMeF]-NH2)
[out] 190

[in] Queued: CCCC[C@H](NC(=O)[C@H](Cc1c[nH]c2ccccc12)NC(=O)CNC(=O)[C@@H]1CCCN1C(=O)[C@H](Cc1ccc(OS(=O)(=O)O)cc1)NC(=O)[C@@H](N)CC(=O)O)C(=O)N(C)[C@H](CC(=O)O)C(=O)N(C)[C@@H](Cc1ccccc1)C(N)=O [Example 69] (H-D[sY]PGW[Nle][dNMeD][NMeF]-NH2)
[out] 190
